molecular target: r-SgAChE1 (Schizaphis graminum acetylcholinesterase-1) (Schizaphis graminum); experiment: Determination of IC50 for inhibition of purified r-SgAChE1; assay type: biochemical; conditions: 5 min incubation, room temperature; listed as eserine
Sequence (Q9BMJ1 98-659): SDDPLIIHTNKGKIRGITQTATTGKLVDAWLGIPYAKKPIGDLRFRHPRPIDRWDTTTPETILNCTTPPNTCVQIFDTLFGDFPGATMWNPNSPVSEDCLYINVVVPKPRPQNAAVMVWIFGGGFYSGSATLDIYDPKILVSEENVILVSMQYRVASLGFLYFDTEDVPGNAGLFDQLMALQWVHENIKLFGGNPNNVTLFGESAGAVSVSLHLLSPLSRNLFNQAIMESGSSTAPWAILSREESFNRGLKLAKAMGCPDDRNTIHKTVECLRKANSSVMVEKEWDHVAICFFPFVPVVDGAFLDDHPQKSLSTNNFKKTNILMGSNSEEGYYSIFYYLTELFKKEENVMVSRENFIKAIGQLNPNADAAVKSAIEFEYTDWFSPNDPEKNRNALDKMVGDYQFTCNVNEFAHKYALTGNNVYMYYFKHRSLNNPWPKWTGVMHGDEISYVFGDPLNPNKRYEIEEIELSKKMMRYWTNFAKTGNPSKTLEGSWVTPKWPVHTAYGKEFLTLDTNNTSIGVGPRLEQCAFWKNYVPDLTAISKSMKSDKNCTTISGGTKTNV
experimental_endpoint: pIC50
Please keep in mind that pIC50 is minus log10 of the molar concentration; only the number is needed.

# input Identify pIC50 associated with the compound CNC(=O)Oc1ccc2c(c1)[C@]1(C)CCN(C)[C@@H]1N2C.CNC(=O)Oc1ccc2c(c1)[C@]1(C)CCN(C)[C@@H]1N2C.O=S(=O)(O)O [Eserine, eserine hemisulfate]
# output 6.70

###

target: r-SgAChE1 (Schizaphis graminum acetylcholinesterase-1) (Schizaphis graminum)
experimental_endpoint: Kd (µM)
Use µM as the unit, but write only the number.

# input Read off the recorded Kd for CNC(=O)Oc1cccc2ccccc12
# output 15.6

# input # return recorded Kd for entry CCOC(=O)CC(SP(=O)(OC)OC)C(=O)OCC (centres unmarked)
# output 3.4

###

molecular target: r-SgAChE1 (Schizaphis graminum acetylcholinesterase-1) (Schizaphis graminum); experiment: Kinetics of substrate hydrolysis; assay type: biochemical; details: room temperature
For each record, write down the corresponding Vmax (maximum velocity).
Answer format: numeric, U/mg implied, no suffix.

# input Give Vmax (maximum velocity) for the following compound: CC(=O)SCC[N+](C)(C)C.[I-] [ATC, Acetylthiocholine iodide]
# output 133.2

# input Give reported Vmax (maximum velocity) value for CC(=O)SC(C)C[N+](C)(C)C.[I-] (stereo not drawn) [AβMTC, acetyl(β-methyl)thiocholine iodide]
# output 106.4

# input // fetch Vmax (maximum velocity) given entry CCC(=O)SCC[N+](C)(C)C.[I-] [PTC, propionylthio-choline iodide]
# output 76.7

# input Using the record for CCCC(=O)SCC[N+](C)(C)C.[I-] [BTC, S-butyrylthiocholine iodide] , state its measured Vmax (maximum velocity).
# output 4.4

###

molecular target: r-SgAChE1 (Schizaphis graminum acetylcholinesterase-1) (Schizaphis graminum); assay: Inhibitory kinetic constants; assay type: biochemical; conditions: ATC substrate, room temperature
Give ki for every item shown.
The reply should be a number in M⁻¹ s⁻¹, with the unit left off.

# input Indicate the recorded ki value for this compound: CCOP(=O)(OCC)Oc1ccc([N+](=O)[O-])cc1
# output 15100

# input // fetch ki given entry CNC(=O)Oc1ccc2c(c1)[C@]1(C)CCN(C)[C@@H]1N2C.CNC(=O)Oc1ccc2c(c1)[C@]1(C)CCN(C)[C@@H]1N2C.O=S(=O)(O)O [Eserine, eserine hemisulfate]
# output 1670

# input Please look at this compound and report its ki: CCOC(=O)CC(SP(=O)(OC)OC)C(=O)OCC (stereo not shown)
# output 7830

# input Tell me ki reported for CNC(=O)Oc1cccc2ccccc12
# output 1080

###

biological target: r-SgAChE1 (Schizaphis graminum acetylcholinesterase-1) (Schizaphis graminum); experiment: Kinetics of substrate hydrolysis; format: biochemical; details: comparison with ref 13
Provide the reported KM of r-SgAChE1 relative to SgAChE purified from the greenbug of each item.
# output: number + unit

# input Provide r-SgAChE1 (Schizaphis graminum acetylcholinesterase-1) (Schizaphis graminum) KM of r-SgAChE1 relative to SgAChE purified from the greenbug reading for CCC(=O)SCC[N+](C)(C)C.[I-] [PTC, propionylthio-choline iodide] .
# output 2.20 fold

# input Please look at CC(=O)SC(C)C[N+](C)(C)C.[I-] (stereo not drawn) [AβMTC, acetyl(β-methyl)thiocholine iodide] and tell me its recorded KM of r-SgAChE1 relative to SgAChE purified from the greenbug on r-SgAChE1 (Schizaphis graminum acetylcholinesterase-1) (Schizaphis graminum).
# output 1.88 fold

# input Provide KM of r-SgAChE1 relative to SgAChE purified from the greenbug, tested on r-SgAChE1 (Schizaphis graminum acetylcholinesterase-1) (Schizaphis graminum), for CCCC(=O)SCC[N+](C)(C)C.[I-] [BTC, S-butyrylthiocholine iodide] .
# output 6.02 fold

# input With r-SgAChE1 (Schizaphis graminum acetylcholinesterase-1) (Schizaphis graminum) as the test system, provide measured KM of r-SgAChE1 relative to SgAChE purified from the greenbug for this compound: CC(=O)SCC[N+](C)(C)C.[I-] [ATC, Acetylthiocholine iodide]
# output 1.53 fold
